- Test system: WNK4;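 also: KINOMEscan kinase panel screen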
- conditionContext: concentration: 1 μM, replicates: in singlicate; n = 1
Criterion: %Inh strictly less than 6%. Met: 1 (yes). Not met: 0 (no).

[
  {
    "molecule": "COc1cccc(C2=C(N(C)c3ccccc3)C(=O)NC2=O)c1 [SB-334865]",
    "measuredOn": "WNK4",
    "classification": "0 (no)"
  },
  {
    "molecule": "COc1cc(Nc2nccc(N3CCC(NC(=O)C(C)c4ccc(Cl)cc4)C3)n2)cc(OC)c1OC (stereo not shown) [GSK1379757]",
    "measuredOn": "WNK4",
    "classification": "0 (no)"
  },
  {
    "molecule": "COc1cc2ncn(-c3cc(OCc4ccc(S(C)(=O)=O)cc4)c(C(N)=O)s3)c2cc1OC [GW869979]",
    "measuredOn": "WNK4",
    "classification": "0 (no)"
  },
  {
    "molecule": "COc1cc(OC)cc(-c2cc3cnc(N)nc3nc2NC(=O)NC(C)(C)C)c1",
    "measuredOn": "WNK4",
    "classification": "1 (yes)"
  },
  {
    "molecule": "O=C(Nc1ccc2c(c1)OCO2)NC1CCN(c2ccnc(NCc3ccc(F)cc3)n2)CC1 [GSK1379859]",
    "measuredOn": "WNK4",
    "classification": "0 (no)"
  },
  {
    "molecule": "COc1cccc(C2=C(Nc3cccc(C(=O)O)c3)C(=O)NC2=O)c1 [SB-390770]",
    "measuredOn": "WNK4",
    "classification": "1 (yes)"
  },
  {
    "molecule": "Nc1ncnc2c1ncn2-c1cccc2ccccc12 [SKF-97184]",
    "measuredOn": "WNK4",
    "classification": "0 (no)"
  },
  {
    "molecule": "COc1ccc(-c2cc3c(C)nc(N)nc3n([C@H]3CC[C@H](OCCO)CC3)c2=O)cn1",
    "measuredOn": "WNK4",
    "classification": "1 (yes)"
  },
  {
    "molecule": "Cl.c1ccc(Cn2cnc3cc(Nc4ncnc5ccccc45)ccc32)cc1 [GW272142]",
    "measuredOn": "WNK4",
    "classification": "0 (no)"
  },
  {
    "molecule": "CC(C)(C)c1ccc(C(=O)Nc2cn3cc(-c4ccccc4)ccc3n2)cc1",
    "measuredOn": "WNK4",
    "classification": "0 (no)"
  },
  {
    "molecule": "COc1cc2nccc(Nc3ccc(OCc4ccc(NC(C)=O)cc4)cc3)c2cc1OC.Cl [GW440135]",
    "measuredOn": "WNK4",
    "classification": "1 (yes)"
  },
  {
    "molecule": "COc1cc2ncn(-c3cc(OCc4ccncc4)c(C(N)=O)s3)c2cc1OC [GSK336313]",
    "measuredOn": "WNK4",
    "classification": "1 (yes)"
  },
  {
    "molecule": "CCS(=O)(=O)c1ccc(OC)c(Nc2ncc(-c3ccc(F)cc3)o2)c1.Cl [GW591947]",
    "measuredOn": "WNK4",
    "classification": "1 (yes)"
  },
  {
    "molecule": "Fc1cccc(CSc2nnc(-c3ccc4c(c3)CCO4)o2)c1",
    "measuredOn": "WNK4",
    "classification": "1 (yes)"
  },
  {
    "molecule": "COc1ccc(CNC(=O)NC2CCN(c3ccnc(Nc4ccc(F)cc4)n3)C2)cc1 (stereo not shown) [GSK1379706]",
    "measuredOn": "WNK4",
    "classification": "0 (no)"
  },
  {
    "molecule": "CCC(=O)c1c(-c2ccccc2)c2cc(Cl)ccc2c(=O)n1Cc1ccc(C(=O)O)cc1",
    "measuredOn": "WNK4",
    "classification": "1 (yes)"
  },
  {
    "molecule": "COc1cc2nccc(Nc3cccc(Oc4ccccc4)c3)c2cc1OC.Cl [GW284543]",
    "measuredOn": "WNK4",
    "classification": "1 (yes)"
  },
  {
    "molecule": "Nc1n[nH]c2ncc(-c3ccccc3)cc12 [SB-517081]",
    "measuredOn": "WNK4",
    "classification": "0 (no)"
  },
  {
    "molecule": "CCC(=O)c1c(-c2ccccc2)c2cc(Cl)ccc2c(=O)n1Cc1cc(C(=O)NC2CC2)n(C)n1",
    "measuredOn": "WNK4",
    "classification": "0 (no)"
  }
]
